assay.target: human APJ receptor (Homo sapiens)
Construct: expressed in transfected cells
Sequence (P35414 1-380): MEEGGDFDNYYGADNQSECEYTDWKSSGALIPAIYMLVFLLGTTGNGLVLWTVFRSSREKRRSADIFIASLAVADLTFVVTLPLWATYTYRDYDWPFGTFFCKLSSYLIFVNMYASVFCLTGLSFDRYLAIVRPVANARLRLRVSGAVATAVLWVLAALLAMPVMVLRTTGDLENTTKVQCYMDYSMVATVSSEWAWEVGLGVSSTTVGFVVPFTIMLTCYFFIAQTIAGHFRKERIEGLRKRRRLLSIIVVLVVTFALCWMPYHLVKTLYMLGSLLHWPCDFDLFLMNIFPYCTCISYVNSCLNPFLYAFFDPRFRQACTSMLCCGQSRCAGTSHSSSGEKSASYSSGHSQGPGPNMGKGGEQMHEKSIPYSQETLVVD
test.details: Intracellular cAMP accumulation assay (APJ hcAMP, HTRF)
Format: cell-based
measurement.setup: Table 1; HEK293 cells stably expressing human APJ receptor; inhibition of forskolin-mediated cAMP production; read-out: APJ hcAMP EC50
pEC50: −log10 of the molar value.
measurement.type: pEC50

Checklist item: pEC50 tested on human APJ receptor (Homo sapiens), entry CCC[C@H](NC(=O)c1ccc(-c2c(Cl)cccc2-c2nc3ccccc3[nH]2)c(C(=O)O)c1)c1ccccc1OC(F)(F)F (single isomer, unassigned) , value? > 8.00

Checklist item: pEC50 tested on human APJ receptor (Homo sapiens), entry CCC[C@@H](NC(=O)c1ccc(-c2c(Cl)cccc2-c2nc3cc(OC)ccc3[nH]2)c(C(=O)O)c1)c1ccccc1 (atropisomer, axis not shown) , value? > 8.00

Checklist item: pEC50 tested on human APJ receptor (Homo sapiens), entry `CCC[C@@H](NC(=O)c1ccc(-c2cc(Cl)ccc2-c2nc3c(O)cccc3[nH]2)c(C(=O)O)c1)c1ccccc1` , value? > 8.00

# credit: patent US11498903B2
